# System: biotinyl-Trp-oxazolone
# EXPERIMENT_SUMMARY: self-aminoacylation, catalytic enhancement (BWO) (fold over background); higher = more active; k-Seq, kA / k0A0; sequences stand for … in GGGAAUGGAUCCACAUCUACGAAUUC…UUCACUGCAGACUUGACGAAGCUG
Variants at the floor of the assay were thinned out.
MEASUREMENT_NAME: self-aminoacylation
When you answer, write just the number.

Ask: Quick check: self-aminoacylation of AUUCACCAAGGUCAUCGGAUG [Fam2.2 aminoacylation ribozyme variant] ?
Result: 0.726

Ask: Quick check: self-aminoacylation of CCACUCGUCAAGCAAUCGGUC [Fam1B.1 aminoacylation ribozyme variant] ?
Result: 0.864

Ask: Quick check: self-aminoacylation of CGAGACUUCAAGCAAUCGGUC [Fam1B.1 aminoacylation ribozyme variant] ?
Result: 4.16

Ask: Quick check: self-aminoacylation of AUUCACCUGGGUCAUCGGUUG [Fam2.2 aminoacylation ribozyme variant] ?
Result: 1.62

Ask: Quick check: self-aminoacylation of AUUCACUUAUGUCAUCGGGUG [Fam2.2 aminoacylation ribozyme variant] ?
Result: 5.18

----------
# Tested on: biotinyl-Val-oxazolone
# EXPERIMENT_SUMMARY: self-aminoacylation, catalytic enhancement (BVO) (fold over background); higher = more active; k-Seq, kA / k0A0; sequences stand for … in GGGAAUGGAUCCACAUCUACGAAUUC…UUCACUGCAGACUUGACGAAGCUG
Fewer inactive variants are shown than the library holds.
MEASUREMENT_NAME: self-aminoacylation
When you answer, write just the number.

Ask: Quick check: self-aminoacylation of AAGUCUGCUUAUAGUCGCAAG [Fam3.1 aminoacylation ribozyme variant] ?
Result: 0.822

Ask: Quick check: self-aminoacylation of CCACACUUCAAGCAUACGGUC [Fam1B.1 aminoacylation ribozyme variant] ?
Result: 0.836

Ask: Quick check: self-aminoacylation of AAGUUUGCUAUUAGUCGCCAG [Fam3.1 aminoacylation ribozyme variant] ?
Result: 0.818

Ask: Quick check: self-aminoacylation of UUUGACCUAGGUCAUCGGGUG [Fam2.2 aminoacylation ribozyme variant] ?
Result: 4.23

Ask: Quick check: self-aminoacylation of AUUGCCGUGGUCAUCGAGUGA [Fam2.1 aminoacylation ribozyme variant] ?
Result: 3.45

Ask: Quick check: self-aminoacylation of CUACUUCUAACAAUCGGUGUG [Fam1A.1 aminoacylation ribozyme variant] ?
Result: 0.687

Ask: Quick check: self-aminoacylation of ACGUUUGCAAAUAGUCGCAAG [Fam3.1 aminoacylation ribozyme variant] ?
Result: 1.2

Ask: Quick check: self-aminoacylation of AUUACCCUGGUGAUCGAGUGG [Fam2.1 aminoacylation ribozyme variant] ?
Result: 1.26

Ask: Quick check: self-aminoacylation of CUACUUCAAAAAAUCGGUCUG [Fam1A.1 aminoacylation ribozyme variant] ?
Result: 0.795

Ask: Quick check: self-aminoacylation of AAGUUGGCUAAUAAUCGCAAG [Fam3.1 aminoacylation ribozyme variant] ?
Result: 1.67

Ask: Quick check: self-aminoacylation of AUUACACCGGUCAUCGAGUGA [Fam2.1 aminoacylation ribozyme variant] ?
Result: 2.96

Ask: Quick check: self-aminoacylation of AUUACCCAGGUCAUCAAGUGA [Fam2.1 aminoacylation ribozyme variant] ?
Result: 1.59

Ask: Quick check: self-aminoacylation of CUACUUCAAACUAUCGAUCUG [Fam1A.1 aminoacylation ribozyme variant] ?
Result: 0.728

Ask: Quick check: self-aminoacylation of AAGUUUGCUGAUAGUCGCCAG [Fam3.1 aminoacylation ribozyme variant] ?
Result: 1.53

Ask: Quick check: self-aminoacylation of CCACACUUGAAGCAAUCGAUC [Fam1B.1 aminoacylation ribozyme variant] ?
Result: 0.612

Ask: Quick check: self-aminoacylation of AGGUUUGCUAAUAGUCGCAAG [Fam3.1 aminoacylation ribozyme variant] ?
Result: 1.38

Ask: Quick check: self-aminoacylation of ACUCUCCUAGGUCAUCGGGUG [Fam2.2 aminoacylation ribozyme variant] ?
Result: 5.61

Ask: Quick check: self-aminoacylation of AUUCCCCUAUGUCAUCGGGUG [Fam2.2 aminoacylation ribozyme variant] ?
Result: 10.9

Ask: Quick check: self-aminoacylation of AUUCACCUGGGUCAUCGGGUU [Fam2.2 aminoacylation ribozyme variant] ?
Result: 5.13

Numbers sourced from the supplement of paper PMC9233669.
